System: WEEV California
Test: microbe, parasite or virus in culture
Format: cell-based
Conditions: Western equine encephalitis virus, Vero 76, 48 h, read-out: WEEV California EC50 nM
Measured EC50, listed per entry.

Completed entries (count: 3):
COc1ccc(-n2c([C@H]3CCCN3)nc3ccc(F)c(F)c3c2=O)cc1 [Example 28] :: > 1000 nM
COc1ccc(-n2c(C3C[C@@H]4CCC[C@@H]4N3)nc3c(-c4ccc(C)nc4)cc(C#N)cc3c2=O)cc1F (stereo partly drawn) [Example 140] :: 1 to 50 nM
Cc1ccc(-n2c([C@H]3CCCN3)nc3ccc([N+](=O)[O-])cc3c2=O)cc1 [Example 37] :: 501 to 1000 nM

Prompt line: Would you kindly share the measured EC50 for COc1ccc(-n2c([C@H]3CCCN3)nc3c(F)c(F)c(F)cc3c2=O)cc1 [Example 16] ?
Response line: > 1000 nM

Prompt line: Would you kindly share the measured EC50 for COc1ccc(-n2c(C3CCCN3)nc3c(-c4ccc(O)cc4)cc(C#N)cc3c2=O)cc1F (stereo not drawn) [Example 158] ?
Response line: 501 to 1000 nM

Prompt line: Would you kindly share the measured EC50 for O=c1c2cc([N+](=O)[O-])ccc2nc([C@@H]2CCCN2)n1-c1ccc(OC(F)(F)F)cc1 [Example 46] ?
Response line: > 1000 nM

Prompt line: Would you kindly share the measured EC50 for COc1ccc(-n2c([C@H]3CCCN3)nc3cccc([N+](=O)[O-])c3c2=O)cc1 [Example 49] ?
Response line: > 1000 nM

Prompt line: Would you kindly share the measured EC50 for COc1ccc(-n2c(C3CCCN3)nc3c(-c4ccc(C)nc4)cc(C#N)cc3c2=O)cc1F (stereo not drawn) [Example 101] ?
Response line: 1 to 50 nM

###

Measured EC50, listed per entry.
System: VEEV TC83
Experiment: microbe, parasite or virus in culture
Format: cell-based
Conditions: Venezuelan equine encephalitis virus, Vero 76, 48 h, read-out: VEEV TC83 EC50 nM

Completed entries (count: 6):
COCCOc1ccc(-c2cc(C#N)cc3c(=O)n(-c4ccc(OC)c(F)c4)c(C4CCCN4)nc23)cc1 (stereo not shown) :: 1 to 50 nM
COc1ccc(-n2c([C@H]3CCCN3)nc3cc(F)c(C#N)cc3c2=O)cc1 :: 51 to 150 nM
COc1ccc(-n2c([C@H]3CCC(=O)N3)nc3c(-c4ccc(C)nc4)cc(C#N)cc3c2=O)cc1F :: > 1000 nM
COc1ccc(-n2c([C@@H](C)N(C)C)nc3ccc([N+](=O)[O-])cc3c2=O)cc1 :: 51 to 150 nM
COc1ccc(-n2c([C@@H]3C[C@@H](O)CN3)nc3c(-c4ccc(C)nc4)cc(C#N)cc3c2=O)cc1F :: > 1000 nM
COc1ccc(-c2cc(C#N)cc3c(=O)n(-c4ccc(OC)c(F)c4)c(C4CCCN4)nc23)cn1 (stereo not shown) :: 1 to 50 nM

Now consider a different molecule.
Prompt line: Would you kindly share the measured EC50 for COc1ccc(-n2c([C@H]3CCCN3)nc3cc(C)c([N+](=O)[O-])cc3c2=O)cc1 ?
Response line: 1 to 50 nM

###

System: VEEV TC83
Test: microbe, parasite or virus in culture
Assay type: cell-based
Conditions: Venezuelan equine encephalitis virus, Vero 76, 48 h, read-out: VEEV TC83 EC50 nM
parameter-measured: EC50

Completed entries (count: 6):
COc1ccc(-n2c([C@H]3CCCN3C)nc3c(-c4cn(C)cn4)cc(C#N)cc3c2=O)cc1F [Example 98] :: 1 to 50 nM
COc1ccc(-n2c(C3CCCN3)nc3c(-c4ccc(S(C)(=O)=O)cc4)cc(C#N)cc3c2=O)cc1F (stereo not shown) [Example 136] :: 1 to 50 nM
O=c1c2cc([N+](=O)[O-])ccc2nc(C2CCN2)n1-c1ccccc1 (stereo not shown) [Example 27] :: 501 to 1000 nM
COc1ccc(-n2c([C@H]3CCCN3)nc3c(Br)cc(C#N)cc3c2=O)cc1F [Example 96] :: 1 to 50 nM
N#Cc1ccc(-n2c([C@H]3CCCN3)nc3ccc([N+](=O)[O-])cc3c2=O)cc1 [Example 20] :: 1 to 50 nM
COc1ccc(-n2c([C@H]3CCCN3C)nc3c(C)cc([N+](=O)[O-])cc3c2=O)cc1F [Example 71] :: 51 to 150 nM

Prompt line: Would you kindly share the measured EC50 for COc1ccc(-n2c([C@H]3CCCN3)nc3c(N4CCC(N5CCOCC5)CC4)cc(C#N)cc3c2=O)cc1F [Example 179] ?
Response line: 1 to 50 nM
